Data origin: patent US9932335B2

Kindly state pEC50 for each of the entries shown.
Molecular target: human M1 (Homo sapiens, UniProt P11229)
Construct: expressed in transfected cells; host or cells: CHO cells
Sequence (P11229 whole entry): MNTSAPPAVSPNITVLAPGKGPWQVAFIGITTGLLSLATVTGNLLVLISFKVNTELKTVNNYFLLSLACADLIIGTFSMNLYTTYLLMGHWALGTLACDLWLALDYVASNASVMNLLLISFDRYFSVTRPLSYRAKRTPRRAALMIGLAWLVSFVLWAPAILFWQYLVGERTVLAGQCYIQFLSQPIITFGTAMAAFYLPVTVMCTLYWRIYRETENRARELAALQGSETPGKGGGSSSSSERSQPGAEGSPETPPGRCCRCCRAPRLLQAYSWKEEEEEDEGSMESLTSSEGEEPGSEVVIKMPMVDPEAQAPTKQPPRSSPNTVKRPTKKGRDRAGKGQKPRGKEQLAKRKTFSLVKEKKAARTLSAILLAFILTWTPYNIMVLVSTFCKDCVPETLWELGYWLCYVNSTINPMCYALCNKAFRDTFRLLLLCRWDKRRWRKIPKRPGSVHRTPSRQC
Experiment: M1 PAM assay (FLIPR intracellular calcium, CHO human M1)
Format: cell-based
One number for each entry, as −log10 of the molar value.

>>> numeric_value("NC(=O)c1ccc(Cn2cc(C(=O)N[C@H]3CCOC[C@@H]3O)c3ncccc32)cc1 (stereo in doubt) [Example 63b]")
7.89

Below are some molecules; for each one, tell me its pEC50.
1. CCCC(CO)NC(=O)c1cn(Cc2ccc(-c3cnn(C)c3)cc2F)c2cccnc12 (stereo not shown)
2. CC[C@@H](CO)NC(=O)c1cn(Cc2ccc(-c3cnn(C)c3)cc2F)c2cccnc12
3. O=C(N[C@H]1CCCC[C@@H]1O)c1cn(Cc2ccc(Cl)nc2)c2cccnc12

result:
1: 6.70; 2: 6.89; 3: 6.31

Record pEC50 for all entries; do not skip any.
1. CC(C)[C@@H](CO)NC(=O)c1cn(Cc2ccc(-c3cnn(C)c3)cc2F)c2cccnc12
2. Cn1cc(-c2cccc(Cn3cc(C(=O)N[C@H]4CCCC[C@@H]4O)c4ncccc43)c2)cn1
3. CC(C)C(CO)NC(=O)c1cn(Cc2ccc(-c3cnn(C)c3)cc2F)c2cccnc12 (stereo not shown)
4. O=C(N[C@H]1CCCC[C@@H]1O)c1cn(Cc2ccc(-c3ccccc3)cc2)c2cccnc12
5. O=C(N[C@H]1CCCC[C@@H]1O)c1cn(Cc2ccc(Cl)cc2)c2cccnc12
6. Cn1cc(-c2ccc(Cn3cc(C(=O)NCC(C)(C)O)c4ncccc43)c(F)c2)cn1

result:
6.75
6.35
6.74
6.52
6.58
6.50
